Target: DNA dC->dU-editing enzyme APOBEC-3G (Homo sapiens) (UniProt Q9HC16)
Sequence (Q9HC16 whole entry, looked up): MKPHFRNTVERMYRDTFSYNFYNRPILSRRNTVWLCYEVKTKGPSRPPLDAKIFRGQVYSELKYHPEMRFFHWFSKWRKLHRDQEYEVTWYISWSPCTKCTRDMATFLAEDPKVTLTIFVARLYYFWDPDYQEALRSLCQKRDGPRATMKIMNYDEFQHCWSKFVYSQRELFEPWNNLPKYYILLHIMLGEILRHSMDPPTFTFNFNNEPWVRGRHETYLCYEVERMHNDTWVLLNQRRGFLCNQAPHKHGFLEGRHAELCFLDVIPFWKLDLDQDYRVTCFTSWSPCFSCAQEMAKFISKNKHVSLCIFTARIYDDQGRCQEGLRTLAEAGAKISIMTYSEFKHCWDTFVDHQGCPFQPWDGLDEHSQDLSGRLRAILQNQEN
Assay: qHTS for inhibitors of Vif-A3G interactions: Validation (AID 588379)
Details: Vif-A3G protein interaction assay; series mostly up to 46.1 µM
Activity calls are given as the source filed them. The call rests on the fitted dose curve; in most records, active means well fitted inhibition curve with a large enough effect; inconclusive means small, poorly fitted or top-dose-only effect; inactive means flat fitted curve, though single readings scatter.
# output must be one of active, inactive

O=C1C(SCCO)=C(SCCO)C(=O)c2ccccc21 ... active

Data request: What did this assay record as the result for O=C(Nc1ccccc1)c1cc([N+](=O)[O-])ccc1Cl ?
Data returned: inactive

Data request: Please state the recorded outcome for this compound: N[C@H](CCCP(=O)(O)O)C(=O)O
Data returned: inactive

Data request: Answer briefly: the call reported for Cc1cc(NC(=O)Nc2ccc3c(ccn3C)c2)sn1 in this assay.
Data returned: inactive

Data request: Returns: the outcome recorded for COc1cc(CNC(=O)CCCC/C=C/C(C)C)ccc1O in this assay.
Data returned: inactive

Data request: Tell me the assay call for N#C/C(=C\c1ccc(O)c(O)c1)C(=O)NCc1ccccc1 please.
Data returned: inactive
